target.desc: Influenza virus A/New Caledonia/20/1999 (H1N1) (Influenza A virus A/New Caledonia/20/1999 (H1N1))
assay.remarks: ELISA on coated viral particles
reported.metric: Binding activity (absorbance at 492 nm)

Guide cases for Binding activity (absorbance at 492 nm), answers given:
binder	recorded.measurement
Group 54 representative clone F083-354, Fab-cp3-type antibody (Fab, V domains shown) VH: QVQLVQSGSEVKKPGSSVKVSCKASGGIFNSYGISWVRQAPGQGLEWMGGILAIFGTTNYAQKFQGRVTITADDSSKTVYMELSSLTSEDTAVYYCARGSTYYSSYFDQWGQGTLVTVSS VL: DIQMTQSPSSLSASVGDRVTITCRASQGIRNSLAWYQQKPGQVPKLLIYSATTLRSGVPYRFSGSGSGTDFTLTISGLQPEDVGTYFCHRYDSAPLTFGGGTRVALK	3.05
Group 38 representative clone F082-338, Fab-cp3-type antibody (Fab, V domains shown) VH: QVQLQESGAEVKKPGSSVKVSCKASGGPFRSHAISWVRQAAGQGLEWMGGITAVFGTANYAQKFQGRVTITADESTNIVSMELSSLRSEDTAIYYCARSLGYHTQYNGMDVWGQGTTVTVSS VL: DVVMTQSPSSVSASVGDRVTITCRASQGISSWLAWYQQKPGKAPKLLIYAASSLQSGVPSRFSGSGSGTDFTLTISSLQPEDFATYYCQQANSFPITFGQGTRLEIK	3.01

Input Group 37 representative clone F083-311, Fab-cp3-type antibody (Fab, V domains shown) VH: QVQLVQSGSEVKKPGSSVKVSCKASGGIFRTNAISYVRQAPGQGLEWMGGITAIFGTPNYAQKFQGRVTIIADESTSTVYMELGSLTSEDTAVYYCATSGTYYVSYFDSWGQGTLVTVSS VL: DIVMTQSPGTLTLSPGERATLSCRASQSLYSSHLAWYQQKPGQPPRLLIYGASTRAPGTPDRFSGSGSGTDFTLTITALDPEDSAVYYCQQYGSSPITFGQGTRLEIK , output reported Binding activity (absorbance at 492 nm).
2.59

Input Group 48 representative clone F083-389, Fab-cp3-type antibody (Fab, V domains shown) VH: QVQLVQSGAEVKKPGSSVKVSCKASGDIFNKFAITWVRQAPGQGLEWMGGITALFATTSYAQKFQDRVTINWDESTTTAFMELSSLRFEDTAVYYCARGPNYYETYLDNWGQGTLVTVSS VL: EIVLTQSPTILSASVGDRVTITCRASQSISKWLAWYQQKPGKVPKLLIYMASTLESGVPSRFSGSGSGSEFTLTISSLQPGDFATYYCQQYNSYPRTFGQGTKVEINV , output reported Binding activity (absorbance at 492 nm).
2.72

Input Group 64 representative clone F083-301, Fab-cp3-type antibody (Fab, V domains shown) VH: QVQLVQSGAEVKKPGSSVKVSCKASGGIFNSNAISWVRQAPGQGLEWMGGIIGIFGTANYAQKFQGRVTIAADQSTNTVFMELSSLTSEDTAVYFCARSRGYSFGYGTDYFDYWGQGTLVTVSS VL: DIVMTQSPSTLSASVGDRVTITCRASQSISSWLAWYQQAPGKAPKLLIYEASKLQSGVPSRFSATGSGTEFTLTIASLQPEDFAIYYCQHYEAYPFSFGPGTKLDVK , output reported Binding activity (absorbance at 492 nm).
1.34

Input Group 57 representative clone F083-103, Fab-cp3-type antibody (Fab, V domains shown) VH: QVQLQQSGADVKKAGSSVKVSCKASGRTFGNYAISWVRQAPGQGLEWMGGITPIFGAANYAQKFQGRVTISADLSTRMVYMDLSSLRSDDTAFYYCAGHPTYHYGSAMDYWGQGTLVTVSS VL: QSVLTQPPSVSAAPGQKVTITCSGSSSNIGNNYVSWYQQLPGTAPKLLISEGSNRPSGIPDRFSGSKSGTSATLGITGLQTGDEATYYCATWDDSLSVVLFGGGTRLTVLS , output reported Binding activity (absorbance at 492 nm).
2.43
